// anti His/HRP lookup, one value per entry
SYSTEM NAME: T1, human CD70, recombinant, N-terminally biotinylated (residues 39-193) (human, UniProt P32970 39-193, N-terminal biotin)
T1 construct: range 39-193; the same entry is used there; also called biotinylated human CD70; CD70 biotin
T1 sequence (looked up): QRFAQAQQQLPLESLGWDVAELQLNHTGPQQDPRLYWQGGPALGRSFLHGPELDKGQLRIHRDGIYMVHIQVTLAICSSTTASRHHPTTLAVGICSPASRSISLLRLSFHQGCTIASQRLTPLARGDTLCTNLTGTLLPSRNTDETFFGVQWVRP
PROTOCOL DETAILS: CD27 blocking ELISA, 3 µM scFv, anti-His/HRP; further: unit not given here
Reply: number alone, nothing else.

In the examples that follow, each entry is paired with its recorded anti His/HRP.
Asked: Give the measured anti His/HRP of 61-TC7-IV-H08 (scFv, His-tagged) scFv: QMQLVQSGGGLVQPGRSLRLSCAASGFTFDDYAMHWVRQAPGKGLEWVAVISYDGSNKYYADSVKGRFTISRDNSKNTLYLQMNSLRAEDTAVYYCARSSYDFWSGYPKDMDVWGKGTTVTVSSGGSGGSGGSGGSSSELTQDPAVSVALGQTVRITCQGDSLRSYYASWYQQKPGQAPVLVIYGKNNRPSGIPDRFSGSSSGNTASLTITGAQAEDEADYYCNSRDSSGNHLVVFGGGTKLTVL .
Given back: 0.711

Asked: anti His/HRP for 14-TC4-III-A04 (scFv, His-tagged) scFv: QVQLVQSGAEVKKPGASVKVSCKASGYTFTGYYMNWVRQAPGQGLEWMAWINPNTGDTNYAQKFQGRVTMTRDTSINTAYIELSRLTSDDTAVYYCARVGDYYDRSGYYRHDAFDIWGQGTMVTVSSGGSGGSGGSGGSSSELTQDPAVSVALGQTVRITCQGDSLRSYYASWYQQKPGQAPVLVIYGKNNRPSGIPDRFSGSSSGNTASLTITGAQAEDEADYYCQAWDSSTGVFGGGTKVTVL ?
Given back: 2.81

Asked: Which anti His/HRP value belongs to 58-TC7-III-G11 (scFv, His-tagged) scFv: EVQLVQSGGGVVQPGRSLRLSCAASGFTFSSYAMHWVRQAPGKGLEWVAVISYDGSNKYYADSVKGRFTISRDNSKNTLYLQMNSLRAEDTAVYYCATNSGYDSDYYYGMDVWGQGTTVTVSSGGSGGSGGSGGSQSVLTQPPSMSGAPGQRVTISCTGSSSNIGAGYDVHWYQHLPGTGPKLLIHGNTNRPSGVPDRFSGSKSGTSASLAITGLQAEDEADYYCQSYDNSLGGYVVFGGGTKVTVL ?
Given back: 1.97

Asked: I would be grateful if you could share the reported anti His/HRP for 54-TC7-V-D10 (scFv, His-tagged) scFv: QVQLQQWGAGLLKPSETLSLTCAVYGGSFSGYYWSWIRQPPGKGLEWIGEINHSGSTNYNPSLKSRVTISVDTSKNQFSLKLSSVTAADTAVYYCARGGYRSYWYFDLWGRGTLVTVSSGGSGGSGGSGGSQSALTQPASVSGSPGQSITISCTGTSSDVGGYNSVSWYQHHPGKAPKLMIYDVSDRPSGVSDRFSGSKSGNTASLTISGLQAEDEADYYCSSYAGSNNVVFGGGTKVTVL .
Given back: 1.46

Let us examine a further case.
Asked: So what's the measured anti His/HRP for this one? 30-TC1.2-I-C08-1 (scFv, His-tagged) scFv: QMQLVQSGAEVKKPGASVKVSCKASGYTFTSYGISWVRQAPGQGLEWMGWINPNTGGTDYAQKFQGRVTITRDTSITTGYMELSRLRSDDTAVYYCARHYYYGMDVWGQGTTVTVSSGGSGGSGGSGGSDIQLTQSPSSLSASVGDRVTITCQASQDISNYLNWYQQKPGKAPKLLIYDASNLETGVPSRFSGSGSGTDFTFTISSLQPEDIATYYCQQYDNLPLTFGGGTKVEIK
Given back: 1.83
